assaySystem: Adenosine receptor A3 (Homo sapiens, UniProt P0DMS8)
Sequence (P0DMS8 whole entry): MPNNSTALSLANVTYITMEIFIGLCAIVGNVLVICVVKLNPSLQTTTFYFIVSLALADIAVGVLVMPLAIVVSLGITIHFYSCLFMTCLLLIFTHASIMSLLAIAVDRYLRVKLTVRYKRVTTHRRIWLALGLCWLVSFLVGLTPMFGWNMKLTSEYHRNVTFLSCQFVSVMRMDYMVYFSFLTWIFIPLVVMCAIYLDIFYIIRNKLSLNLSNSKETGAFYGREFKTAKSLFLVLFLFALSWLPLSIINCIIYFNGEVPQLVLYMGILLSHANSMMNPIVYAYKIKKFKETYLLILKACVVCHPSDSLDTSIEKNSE
// cross-source set; read-out = Ki; system = Adenosine receptor A3 (Homo sapiens, UniProt P0DMS8)
Please respond with the number in nM and leave the unit unwritten.

Before answering, review these 2 worked examples.
C=CCN1CCC(NC(=O)Nc2nc3nn(C)cc3c3nc(-c4ccco4)nn23)CC1; 51
CC(C)(C)OC(=O)NCCCC(=O)Nc1nc2nn(CCc3ccccc3)cc2c2nc(-c3ccco3)nn12; 1480

[Q] What value of measured Ki is listed for O=C(O)c1cnc(NCc2ccc(Cl)cc2)n2nc(-c3ccco3)nc12 ?
[A] 11600

[Q] Request: COc1ccc(-c2cc(NC(C)=O)nc(-c3ccc(OC)c(OC)c3)n2)cc1OC
[A] 5.2

[Q] Request: CN(C)C(=O)[C@H]1S[C@@H](n2cnc3c(NCc4cccc(F)c4)nc(Cl)nc32)[C@H](O)[C@@H]1O
[A] 121

[Q] Request: Cc1ccc(NC(=Nc2nc3nn(C)cc3c3nc(-c4ccco4)nn23)Nc2ccc(C)cc2)cc1
[A] 63

[Q] Request: COc1ccc(CC(=O)Nc2nc3nn(CCC(C)C)cc3c3nc(-c4ccco4)nn23)cc1
[A] 359

[Q] Request: Cn1cc2c(nc(NC(C)(C)CC(C)(C)C)n3nc(-c4ccco4)nc23)n1
[A] 130

[Q] Request: Cn1cc2c(NC(=O)c3ccccc3)nc(-c3ccccc3)nc2n1
[A] 0.6
